meta.source: patent US20210122730A1

- TARGET ENTITY: PR (Homo sapiens, UniProt P06401)
- Sequence (P06401 whole entry): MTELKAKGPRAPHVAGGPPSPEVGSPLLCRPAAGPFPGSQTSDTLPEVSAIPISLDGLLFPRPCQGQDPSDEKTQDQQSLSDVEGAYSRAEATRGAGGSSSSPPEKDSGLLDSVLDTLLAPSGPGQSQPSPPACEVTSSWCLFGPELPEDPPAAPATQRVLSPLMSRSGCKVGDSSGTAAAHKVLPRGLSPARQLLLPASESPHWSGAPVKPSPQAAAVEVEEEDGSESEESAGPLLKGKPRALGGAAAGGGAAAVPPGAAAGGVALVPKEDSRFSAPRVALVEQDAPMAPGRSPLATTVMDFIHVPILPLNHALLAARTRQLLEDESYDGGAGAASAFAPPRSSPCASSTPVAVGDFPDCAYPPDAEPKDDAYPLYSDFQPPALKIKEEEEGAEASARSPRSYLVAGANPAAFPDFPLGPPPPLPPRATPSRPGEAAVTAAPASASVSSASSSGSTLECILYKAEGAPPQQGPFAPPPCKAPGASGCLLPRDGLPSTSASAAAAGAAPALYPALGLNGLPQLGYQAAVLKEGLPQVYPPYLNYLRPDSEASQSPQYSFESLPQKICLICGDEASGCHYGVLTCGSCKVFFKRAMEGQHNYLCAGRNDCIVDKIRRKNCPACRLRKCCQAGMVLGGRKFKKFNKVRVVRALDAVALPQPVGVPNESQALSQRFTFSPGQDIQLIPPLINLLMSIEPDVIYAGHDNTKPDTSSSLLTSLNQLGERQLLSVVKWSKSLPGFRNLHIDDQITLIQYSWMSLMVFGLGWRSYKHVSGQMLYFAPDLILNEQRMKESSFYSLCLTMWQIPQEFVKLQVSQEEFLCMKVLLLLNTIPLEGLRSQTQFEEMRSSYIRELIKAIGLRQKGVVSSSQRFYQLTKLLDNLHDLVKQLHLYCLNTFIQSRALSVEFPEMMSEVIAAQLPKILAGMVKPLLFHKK
- ASSAY NAME: In Vitro PR Luciferase Reporter Assay (antagonist mode, CHO-K1-PR-MMTV-Luc reporter cells)
- RUN PARAMETERS: antagonist assay with 20 nM Progesterone, 18-24 hours, read-out: PR antagonism IC50
pIC50: −log10 of the molar value.
ENDPOINT: pIC50

* O=C(c1cc(Cl)ccn1)[C@]12Cc3cnn(-c4ccc(F)cc4)c3C=C1CC[C@H](N(C1CC1)S(=O)(=O)c1ccc(F)cc1)C2 [Example 232] | < 5.30

Briefly, pIC50 measured for CC(C)N([C@H]1CCC2=Cc3c(cnn3-c3ccc(F)cc3)C[C@]2(C(=O)c2cc(C(F)(F)F)ccn2)C1)S(=O)(=O)c1ccn(C)n1 [Example 186] : < 5.30

Reported pIC50 for Cn1ccc(S(=O)(=O)N(C2CC2)[C@H]2CCC3=Cc4c(cnn4-c4ccc(F)cc4)C[C@]3(C(=O)c3cc(C(F)(F)F)ccn3)C2)n1 [Example 138] was < 5.30

The molecule identified as Cn1cc(S(=O)(=O)N(C2CC2)[C@H]2CCC3=Cc4c(cnn4-c4ccc(F)cc4)C[C@]3(C(=O)c3cc(C(F)(F)F)ccn3)C2)cn1 [Example 88] registered its pIC50 at < 5.30

// pIC50 lookup, molecule = Cn1cc(S(=O)(=O)N(CC2CC2)[C@H]2CCC3=Cc4c(cnn4-c4ccc(F)cc4)C[C@]3(C(=O)c3cc(C(F)(F)F)ccn3)C2)cn1 [Example 103] , result: < 5.30

Item: Cn1ccc(S(=O)(=O)N(CC(F)(F)F)[C@H]2CCC3=Cc4c(cnn4-c4ccc(F)cc4)C[C@]3(C(=O)c3cc(C(F)(F)F)ccn3)C2)n1 [Example 111] | pIC50: < 5.30

Noted for Cn1cnc(S(=O)(=O)N(C2CC2)[C@H]2CCC3=Cc4c(cnn4-c4ccc(F)cc4)C[C@]3(C(=O)c3cc(C(F)(F)F)ccn3)C2)n1 [Example 306] : its pIC50 reads < 5.30

* * *

The entries below come with measured inhibition at 5 min values attached.
- TARGET ENTITY: CYP2C8 (Homo sapiens, UniProt P10632)
- Construct: Pooled human microsomes were obtained from Sekisui XenoTech, KS; tissue Sekisui XenoTech, KS; host or cells: pooled human liver microsomes
- Sequence (P10632 1-490): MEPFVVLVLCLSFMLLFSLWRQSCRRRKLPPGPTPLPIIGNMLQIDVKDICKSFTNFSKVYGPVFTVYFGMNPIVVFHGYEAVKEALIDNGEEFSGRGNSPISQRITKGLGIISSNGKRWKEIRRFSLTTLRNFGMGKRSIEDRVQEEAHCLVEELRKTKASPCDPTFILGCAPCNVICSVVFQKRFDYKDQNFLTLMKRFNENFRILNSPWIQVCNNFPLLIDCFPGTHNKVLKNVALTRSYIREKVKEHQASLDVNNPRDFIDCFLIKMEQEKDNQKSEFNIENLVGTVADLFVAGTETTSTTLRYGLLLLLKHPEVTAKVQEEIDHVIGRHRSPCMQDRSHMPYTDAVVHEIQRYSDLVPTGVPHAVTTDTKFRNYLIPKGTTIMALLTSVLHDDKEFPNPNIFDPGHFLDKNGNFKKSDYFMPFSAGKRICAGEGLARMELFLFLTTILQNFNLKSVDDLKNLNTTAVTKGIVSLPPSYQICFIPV
- ASSAY NAME: CYP Inhibition Assay (CYP2C8, human liver microsomes, paclitaxel substrate)
- Format: in vitro ADME
- RUN PARAMETERS: pH 7.4; pooled human liver microsomes 0.1 mg/mL, probe substrate paclitaxel

* CC(C)N([C@H]1CCC2=Cc3c(cnn3-c3ccc(F)cc3)C[C@]2(C(=O)c2cc(C(F)(F)F)ccn2)C1)S(=O)(=O)c1ccc(F)cc1 [Example 210] | 75 to 90%

Reported CYP2C8 (Homo sapiens, UniProt P10632) inhibition at 5 min for item CCN([C@H]1CCC2=Cc3c(cnn3-c3ccc(F)cc3)C[C@]2(C(=O)c2cc(C(F)(F)F)ccn2)C1)S(=O)(=O)c1ncn(C)n1 [Example 357] was ≤ 25%

Item Cn1cc(S(=O)(=O)N(C2CCC2)[C@H]2CCC3=Cc4c(cnn4-c4ccc(F)cc4)C[C@]3(C(=O)c3cc(C(F)(F)F)ccn3)C2)nn1 [Example 230] ; assay system CYP2C8 (Homo sapiens, UniProt P10632); inhibition at 5 min reported as 50 to 75%

CYP2C8 (Homo sapiens, UniProt P10632) data for CC(C)N([C@H]1CCC2=Cc3c(cnn3-c3ccc(F)cc3)C[C@]2(C(=O)c2cc(Cl)ccn2)C1)S(=O)(=O)c1cn(C)nn1 [Example 296] ; its inhibition at 5 min: 50 to 75%

Entry Cn1cnc(S(=O)(=O)N(C2CC(F)(F)C2)[C@H]2CCC3=Cc4c(cnn4-c4ccc(F)cc4)C[C@]3(C(=O)c3ncc(C(F)(F)F)s3)C2)n1 [Example 324] under CYP2C8 (Homo sapiens, UniProt P10632) had inhibition at 5 min of 25 to 50%

The reported inhibition at 5 min value, CYP2C8 (Homo sapiens, UniProt P10632), for Cn1ccc(S(=O)(=O)N(C2COC2)[C@H]2CCC3=Cc4c(cnn4-c4ccc(F)cc4)C[C@]3(C(=O)c3ncc(C(F)(F)F)s3)C2)n1 [Example 196] reads 50 to 75%

* * *

- TARGET ENTITY: CYP2C8 (Homo sapiens)
- Construct: Pooled human microsomes were obtained from Sekisui XenoTech, KS; tissue Sekisui XenoTech, KS; host or cells: pooled human liver microsomes
- ASSAY NAME: CYP Inhibition Assay (CYP2C8, human liver microsomes, paclitaxel substrate)
- Assay type: in vitro ADME
- RUN PARAMETERS: pH 7.4; pooled human liver microsomes 0.1 mg/mL, probe substrate paclitaxel
Here, each record is paired with measured inhibition at 5 min data.

Known inhibition at 5 min results, listed for orientation:
* CCN([C@H]1CCC2=Cc3c(cnn3-c3ccc(F)cc3)C[C@]2(C(=O)c2cc(C(F)(F)F)ccn2)C1)S(=O)(=O)C1CCCC1 [Example 243] | 50 to 75%
* Cn1ccc(S(=O)(=O)N(CC(F)(F)F)[C@H]2CCC3=Cc4c(cnn4-c4ccc(F)cc4)C[C@]3(C(=O)c3ncc(C(F)(F)F)s3)C2)n1 [Example 184] | 25 to 50%

Switching to the query record.
Consider O=C(c1ccc(C(F)(F)F)cn1)[C@]12Cc3cnn(-c4ccc(F)cc4)c3C=C1CC[C@H](S(=O)(=O)c1ccc(F)cc1)C2 [Example 55] . Its measured inhibition at 5 min is ≤ 25%

* * *

Listing: inhibition at 5 min of selected molecules
- TARGET ENTITY: CYP2C8 (Homo sapiens)
- Construct: Pooled human microsomes were obtained from Sekisui XenoTech, KS; tissue Sekisui XenoTech, KS; host or cells: pooled human liver microsomes
- ASSAY NAME: CYP Inhibition Assay (CYP2C8, human liver microsomes, paclitaxel substrate)
- Assay type: in vitro ADME
- RUN PARAMETERS: pH 7.4; pooled human liver microsomes 0.1 mg/mL, probe substrate paclitaxel
- Protocol: Example B: CYP Inhibition Assay Objective: To assess the % inhibition of test compounds against CYP2C8 enzyme in human liver microsomes. […] The CYP enzyme activity was determined based on the formation of 6a-hydroxypaclitaxel metabolite. The % inhibition was calculated using this equation: % Inhibition=100×(1−Ainactivator/Avehicle), where Ainactivator is the CYP enzyme activity in the presence of test compound, and Avehicle is the CYP activity in the presence of vehicle.

These recorded examples may help you get a feel for the data.
* Cn1cnc(S(=O)(=O)N(C2CC(F)(F)C2)[C@H]2CCC3=Cc4c(cnn4-c4ccc(F)cc4)C[C@]3(C(=O)c3cc(C(F)(F)F)ccn3)C2)c1 [Example 325] | ≤ 25%
* Cn1ccc(S(=O)(=O)N([C@H]2CCC3=Cc4c(cnn4-c4ccc(F)cc4)C[C@]3(C(=O)c3ncc(C(F)(F)F)s3)C2)[C@H]2C[C@](C)(O)C2)n1 [Example 326] | 50 to 75%

Let us examine a further case.
molecule Cn1cnc(S(=O)(=O)[C@H]2CCC3=Cc4c(cnn4-c4ccc(F)cc4)C[C@]3(C(=O)c3ccc(C(F)(F)F)cn3)C2)n1 [Example 374] , inhibition at 5 min observed: ≤ 25%

* * *

- TARGET ENTITY: CYP2C8 (Homo sapiens)
- Construct: Pooled human microsomes were obtained from Sekisui XenoTech, KS; tissue Sekisui XenoTech, KS; host or cells: pooled human liver microsomes
- ASSAY NAME: CYP Inhibition Assay (CYP2C8, human liver microsomes, paclitaxel substrate)
- Assay type: in vitro ADME
- RUN PARAMETERS: pH 7.4; pooled human liver microsomes 0.1 mg/mL, probe substrate paclitaxel
ENDPOINT: inhibition at 5 min

Reference set, count: 4
• CN([C@H]1CCC2=Cc3c(cnn3-c3ccc(F)cc3)C[C@]2(C(=O)c2ncc(C3CC3)s2)C1)S(=O)(=O)c1ccn(C)n1 [Example 140] = 75 to 90%
• Cn1cc(S(=O)(=O)N(CC(F)F)[C@H]2CCC3=Cc4c(cnn4-c4ccc(F)cc4)C[C@]3(C(=O)c3ncc(C(F)(F)F)s3)C2)nn1 [Example 350] = 25 to 50%
• O=C(c1cc(F)ccn1)[C@]12Cc3cnn(-c4ccc(F)cc4)c3C=C1CC[C@H](N(CC1CC1)S(=O)(=O)c1ccc(Cl)nc1)C2 [Example 319] = 50 to 75%
• Cn1ccc(S(=O)(=O)N(C2CC2)[C@H]2CCC3=Cc4c(cnn4-c4ccc(F)cc4)C[C@]3(C(=O)c3ncc(C(F)(F)F)s3)C2)n1 [Example 164] = 50 to 75%

Now consider the entry below.
Documented inhibition at 5 min of O=C(c1cc(Cl)ccn1)[C@]12Cc3cnn(-c4ccc(F)cc4)c3C=C1CC[C@H](N(C1CC1)S(=O)(=O)c1ccc(F)cc1)C2 [Example 232] : 25 to 50%
